tested on: Helicobacter pylori No. 3; test: MIC, agar plating dilution, clinical segregation strain; format: cell-based; conditions: Strain 6: Helicobacter pylori No. 3
MEASURED_QUANTITY: MIC (µg/mL)
Give bare numbers, in µg/mL.

>>> print(df.to_string())
                                   molecule  experimental_result
0  Cc1ccc(CCOC(=O)c2ccc(-c3ccc(OC(=O)[C@H]4CC[C@H](CNC(=N)N)CC4)cc3)cc2)cc1.Cl                 0.20
1  Cl.N=C(N)NC[C@H]1CC[C@H](C(=O)Oc2ccc(-c3ccc(C(=O)OCc4ccc(F)cc4)cc3)cc2)CC1                 0.20
2  CCCC[C@H]1CC[C@H](COC(=O)c2ccc(-c3ccc(OC(=O)[C@H]4CC[C@H](CNC(=N)N)CC4)cc3)cc2)CC1.Cl                 0.20
3  Cl.N=C(N)NC[C@H]1CC[C@H](C(=O)Oc2ccc(-c3ccc(C(=O)OCCc4ccccc4)cc3)cc2)CC1                 0.10

Can you give me MIC for all of these, one by one?
1. Cl.N=C(N)NC[C@H]1CC[C@H](C(=O)Oc2ccc(-c3ccc(C(=O)OCc4ccc(Cl)cc4)cc3)cc2)CC1
2. CC1COc2c(N3CCN(C)CC3)c(F)cc3c(=O)c(C(=O)O)cn1c23 (centres unmarked) [Ophroxacine, ophroxacine, reference compound]
3. Cl.N=C(N)NC[C@H]1CC[C@H](C(=O)Oc2ccc(-c3ccc(C(=O)OCc4ccccc4)cc3)cc2)CC1
4. CC(C)OC(=O)c1ccc(-c2ccc(OC(=O)[C@H]3CC[C@H](CNC(=N)N)CC3)cc2)cc1.Cl

Data returned:
[0.10, 25.0, 0.10, 0.39]
